The molecules listed here are annotated with their cell viability of combination.
# Test system: HCI01 (cells of a triple-negative basal-like breast cancer xenograft)
# protocol-text: cell viability of combination (% of vehicle); higher = less cytotoxic
# reported-conditions: 1 µM; 72 h; partner dose: 10 nM
Write no unit; give the number alone.

molecule	cell viability of combination
CNC(=O)c1cc(Oc2ccc(NC(=O)Nc3ccc(Cl)c(C(F)(F)F)c3)cc2)ccn1.Cc1ccc(S(=O)(=O)O)cc1 [Sorafenib Tosylate] + CC(C)C[C@H](NC(=O)[C@H](CCc1ccccc1)NC(=O)CN1CCOCC1)C(=O)N[C@@H](Cc1ccccc1)C(=O)N[C@@H](CC(C)C)C(=O)[C@@]1(C)CO1	70.3

With those in mind, consider the next molecule.
State the recorded cell viability of combination for this entry: CC1CC(=O)NN=C1c1ccc(NN=C(C#N)C#N)cc1 (configuration not stated) [Levosimendan] + CC(C)C[C@H](NC(=O)[C@H](CCc1ccccc1)NC(=O)CN1CCOCC1)C(=O)N[C@@H](Cc1ccccc1)C(=O)N[C@@H](CC(C)C)C(=O)[C@@]1(C)CO1
74.1

---

The compounds listed here are annotated with their cell viability.
# Test system: HCI01
# protocol-text: cell viability (% of vehicle); higher = less cytotoxic
# reported-conditions: 10 µM; 72 h

Here is how some compounds turned out for cell viability.
> print(dat)
                                   compound  measurement.label  result
1  O=c1[nH]c(=O)n(C2CC(O)C(CO)O2)cc1I (centres undefined)     cell viability     165
2  CC(C)N=c1cc2n(-c3ccc(Cl)cc3)c3ccccc3nc-2cc1Nc1ccc(Cl)cc1     cell viability    54.8
3  CC1CCN(C(=O)CC#N)CC1N(C)c1ncnc2[nH]ccc12.O=C(O)CC(O)(CC(=O)O)C(=O)O (centres undefined)     cell viability     188

With those in mind, consider the next compound.
Record lookup: for HCI01, what cell viability belongs to C=C1CCN(C(C)C(O)(Cn2cncn2)c2ccc(F)cc2F)CC1 (centres undefined) ?
119

---

The compounds listed here are annotated with their cell viability of combination.
# Test system: WHIM2 (cells of a triple-negative basal-like breast cancer xenograft)
# protocol-text: cell viability of combination (% of vehicle); higher = less cytotoxic
# reported-conditions: 1 µM; 72 h; partner dose: 10 nM
Write no unit; give the number alone.

compound	result
COc1ccccc1OCCNCC(O)COc1cccc2[nH]c3ccccc3c12 (configuration not stated) [Carvedilol] + CN(C)C/C=C/C(=O)Nc1cc2c(Nc3ccc(F)c(Cl)c3)ncnc2cc1O[C@H]1CCOC1 [Afatinib]	41.1
COC(=O)c1ccc2c(c1)NC(=O)C2=C(Nc1ccc(N(C)C(=O)CN2CCN(C)CC2)cc1)c1ccccc1 [Nintedanib (BIBF 1120)] + CN(C)C/C=C/C(=O)Nc1cc2c(Nc3ccc(F)c(Cl)c3)ncnc2cc1O[C@H]1CCOC1 [Afatinib]	22.5
COc1cc(Nc2c(C#N)cnc3cc(OCCCN4CCN(C)CC4)c(OC)cc23)c(Cl)cc1Cl [Bosutinib (SKI-606)] + CN(C)C/C=C/C(=O)Nc1cc2c(Nc3ccc(F)c(Cl)c3)ncnc2cc1O[C@H]1CCOC1 [Afatinib]	38
COC(=O)C1=C(C)NC(C)=C(C(=O)OCCN(C)Cc2ccccc2)C1c1cccc([N+](=O)[O-])c1.Cl (configuration not stated) [Nicardipine HCl] + CN(C)C/C=C/C(=O)Nc1cc2c(Nc3ccc(F)c(Cl)c3)ncnc2cc1O[C@H]1CCOC1 [Afatinib]	48
CNC(=O)c1cc(Oc2ccc(NC(=O)Nc3ccc(Cl)c(C(F)(F)F)c3)c(F)c2)ccn1 [Regorafenib] + CN(C)C/C=C/C(=O)Nc1cc2c(Nc3ccc(F)c(Cl)c3)ncnc2cc1O[C@H]1CCOC1 [Afatinib]	44.2

State the recorded cell viability of combination for this entry: COC1=C(OC)C(=O)C(CCCCCCCCCCO)=C(C)C1=O [Idebenone] + CN(C)C/C=C/C(=O)Nc1cc2c(Nc3ccc(F)c(Cl)c3)ncnc2cc1O[C@H]1CCOC1 [Afatinib]
50.1

Query CC(Oc1cc(-c2cnn(C3CCNCC3)c2)cnc1N)c1c(Cl)ccc(F)c1Cl [(R)-Crizotinib] + CN(C)C/C=C/C(=O)Nc1cc2c(Nc3ccc(F)c(Cl)c3)ncnc2cc1O[C@H]1CCOC1 [Afatinib] next
44.4

Query CCN(CC)CCNC(=O)c1c(C)[nH]c(C=C2C(=O)Nc3ccc(F)cc32)c1C [Sunitinib] + CN(C)C/C=C/C(=O)Nc1cc2c(Nc3ccc(F)c(Cl)c3)ncnc2cc1O[C@H]1CCOC1 [Afatinib] next
25.7

Query COC(=O)NC(C(=O)N1CCCC1c1ncc(-c2ccc(-c3ccc(-c4cnc(C5CCCN5C(=O)C(NC(=O)OC)C(C)C)[nH]4)cc3)cc2)[nH]1)C(C)C (configuration not stated) + CN(C)C/C=C/C(=O)Nc1cc2c(Nc3ccc(F)c(Cl)c3)ncnc2cc1O[C@H]1CCOC1 [Afatinib] next
46.3

Query CN1CCCC1CCOC(C)(c1ccccc1)c1ccc(Cl)cc1.O=C(O)C=CC(=O)O (configuration not stated) [Clemastine Fumarate] + CN(C)C/C=C/C(=O)Nc1cc2c(Nc3ccc(F)c(Cl)c3)ncnc2cc1O[C@H]1CCOC1 [Afatinib] next
54

Query Cl.Cl.Fc1ccc(C(c2ccc(F)cc2)N2CCN(CC=Cc3ccccc3)CC2)cc1 [Flunarizine 2HCl] + CN(C)C/C=C/C(=O)Nc1cc2c(Nc3ccc(F)c(Cl)c3)ncnc2cc1O[C@H]1CCOC1 [Afatinib] next
50.6

Query O=C(NN=Cc1ccc([N+](=O)[O-])o1)c1ccc(O)cc1 [Nifuroxazide] + CN(C)C/C=C/C(=O)Nc1cc2c(Nc3ccc(F)c(Cl)c3)ncnc2cc1O[C@H]1CCOC1 [Afatinib] next
48.8

Query CC(CCC(=O)O)C1CCC2C3CCC4CC(O)CCC4(C)C3CCC12C (configuration not stated) [Lithocholic Acid] + CN(C)C/C=C/C(=O)Nc1cc2c(Nc3ccc(F)c(Cl)c3)ncnc2cc1O[C@H]1CCOC1 [Afatinib] next
40.5

Query Cl.OC(CNCC(O)C1CCc2cc(F)ccc2O1)C1CCc2cc(F)ccc2O1 (configuration not stated) [Nebivolol] + CN(C)C/C=C/C(=O)Nc1cc2c(Nc3ccc(F)c(Cl)c3)ncnc2cc1O[C@H]1CCOC1 [Afatinib] next
44.7

Query Oc1c(Cl)cc(Cl)c2cccnc12 [Chloroxine] + CN(C)C/C=C/C(=O)Nc1cc2c(Nc3ccc(F)c(Cl)c3)ncnc2cc1O[C@H]1CCOC1 [Afatinib] next
45.9

Query Clc1ccc(C(Cn2ccnc2)OCc2ccc(Sc3ccccc3)cc2)c(Cl)c1.O=[N+]([O-])O (configuration not stated) [Fenticonazole Nitrate] + CN(C)C/C=C/C(=O)Nc1cc2c(Nc3ccc(F)c(Cl)c3)ncnc2cc1O[C@H]1CCOC1 [Afatinib] next
49.9

Query CC(C)C1=CC(=C2NNC(=O)N2c2ccc3c(ccn3C)c2)C(=O)C=C1O [Ganetespib (STA-9090)] + CN(C)C/C=C/C(=O)Nc1cc2c(Nc3ccc(F)c(Cl)c3)ncnc2cc1O[C@H]1CCOC1 [Afatinib] next
29.1
